Attribution: patent US20230212116A1

Let's look at some compounds and their measured pIC50.
# experimental system: SARS-CoV-2 M^Pro (Severe acute respiratory syndrome coronavirus 2)
# procedure details: biochemical
# Format: biochemical
# recorded conditions: read-out: Enzymatic IC50
Units for pIC50: none; it is -log10 of a concentration expressed in mol/L.

Recorded results for 5 compounds are shown here.
[
  {
    "compound": "C[C@@H](OC(C)(C)C)[C@H](NC(=O)OCc1ccccc1)C(=O)N[C@@H](CC1CCCCC1)C(=O)N[C@@H](C[C@@H]1CCNC1=O)C(O)S(=O)(=O)O (some centres unmarked) [MPI65]",
    "reported endpoint": "pIC50",
    "test value": 6.53
  },
  {
    "compound": "CC(C)(C)NC(=O)N[C@H](C(=O)N1C[C@H]2[C@@H]([C@H]1C(=O)N[C@@H](C[C@@H]1CCNC1=O)C(=O)C(=O)NCc1ccccc1)C2(C)C)C(C)(C)C [MPI63]",
    "reported endpoint": "pIC50",
    "test value": 6.99
  },
  {
    "compound": "C=CC(=O)N(CCC(N)=O)NC(=O)[C@H](CC1CCCCC1)NC(=O)[C@@H](NC(=O)OCc1ccccc1)[C@@H](C)OC(C)(C)C [MPI52]",
    "reported endpoint": "pIC50",
    "test value": 7.21
  },
  {
    "compound": "CC(C)[C@H](NC(=O)NC(C)(C)C)C(=O)N[C@@H](CC1CC1)C(=O)N[C@H](C=O)C[C@@H]1CCNC1=O [MPI64]",
    "reported endpoint": "pIC50",
    "test value": 7.58
  },
  {
    "compound": "C[C@@H](OC(C)(C)C)[C@H](NC(=O)OCc1ccccc1)C(=O)N[C@@H](CC1CCCCC1)C(=O)NN(CCC(N)=O)C(=O)CCl [MPI53]",
    "reported endpoint": "pIC50",
    "test value": 6.72
  }
]

Lookup: # return recorded pIC50 for input CC(C)C[C@H](NC(=O)OCc1ccccc1)C(=O)NN(CCC(N)=O)C(=O)[C@@H](C)Cl [MPI39]
Found: 5.30

Lookup: Name the recorded pIC50 of the compound listed here: C[C@@H](OC(C)(C)C)[C@H](NC(=O)OCc1cccc(F)c1)C(=O)N[C@@H](CC1CCCCC1)C(=O)N[C@H](C=O)C[C@@H]1CCNC1=O [MPI102]
Found: 6.51

Lookup: // Input: C=CC(=O)N(Cc1cc(=O)[nH]c(=O)[nH]1)NC(=O)[C@H](CC(C)C)NC(=O)[C@@H](NC(=O)OCc1ccccc1)C(C)C [MPI35] . Output its pIC50 only.
Found: 5.37

Lookup: # return recorded pIC50 for input CC(C)C[C@H](NC(=O)OCc1ccccc1)C(=O)NN(CCC(N)=O)C(=O)CCl [MPI37]
Found: 7.19

Lookup: Report measured pIC50; entry is C=CC(=O)N(CCC(N)=O)NC(=O)[C@@H]1[C@@H]2[C@H](CN1C(=O)[C@@H](NC(=O)NC(C)(C)C)[C@@H](C)OC(C)(C)C)C2(C)C [MPI70]
Found: 6.87

* * *

# experimental system: SARS-CoV-2 M^Pro (Severe acute respiratory syndrome coronavirus 2, UniProt P0DTD1)
# procedure details: biochemical
# Format: biochemical
reported endpoint: pIC50
pIC50 is defined as minus the log10 of a concentration measured in mol/L.

Worked examples follow.
[
  {
    "structure": "C=CC(=O)N(CCC(N)=O)NC(=O)[C@H](CC(C)C)NC(=O)[C@@H](NC(=O)OCc1ccccc1)[C@@H](C)OC(C)(C)C",
    "pIC50": 6.96
  },
  {
    "structure": "CC(C)C[C@H](NC(=O)OCc1ccccc1)C(=O)NN(CCC(N)=O)C(=O)Oc1ccc(F)cc1",
    "pIC50": 5.98
  }
]

Now consider a different compound.
Lookup: Recall the reported pIC50 of CC1(C)[C@@H]2[C@@H](C(=O)N[C@H](C=O)C[C@@H]3CCNC3=O)N(C(=O)[C@H](Cc3ccccc3)NC(=O)OCc3ccccc3)C[C@@H]21 on SARS-CoV-2 M^Pro (Severe acute respiratory syndrome coronavirus 2, UniProt P0DTD1) and write it down.
Found: 6.57
